Test Name: MRP1 drug-resistance reversers in H69AR cells – cell-based, doxorubicin co-treatment, pilot screen (AID 601)
Condition Parameters: H69AR cells + 2 uM doxorubicin, CellTiter-Glo, 72 h; at 10 µM; hits give high values

Compound: Cn1c(C(=O)NCCN2CCN(c3ccccc3F)CC2)cc2c(=O)n(C)c3ccccc3c21
differential viability (reversal) / %: -2.84

Compound: Cn1c(C(=O)NCC2CCCO2)cc2c(=O)n(C)c3ccccc3c21 (stereo not given)
differential viability (reversal) / %: 8.52

Compound: CCOc1ccc(Cn2nnc(C(=O)Nc3cc(C)cc(C)c3)c2N)cc1
differential viability (reversal) / %: 7.9

Compound: CCCn1c(=O)c(C(=O)NCc2ccccn2)c(O)c2ccccc21
differential viability (reversal) / %: -12

Compound: CC1(C)CC(=O)c2cnc(NC(=O)Cc3ccc(Cl)cc3)nc2C1
differential viability (reversal) / %: 10.6

Compound: COc1ccc(N(CC(=O)Nc2ccc3c(c2)OCO3)S(=O)(=O)c2c(C)nn(C)c2C)cc1
differential viability (reversal) / %: 13.8

Compound: Cc1nn(-c2ccc(F)cc2)c2c1cc(C#N)c1nc3ccccc3n12
differential viability (reversal) / %: 5.42

Compound: Cc1ccc(-n2c3c(cc(C(=O)NC4CCSC4=O)c2=O)C(=O)CC(C)(C)C3)cc1 (stereo not given)
differential viability (reversal) / %: 14.6

Compound: Clc1ccc(Nc2ncnc3c2cnn3-c2ccccc2)cc1
differential viability (reversal) / %: 7.29

Compound: CCCCC(NC(C)=O)c1nc2ccccc2n1CCC (stereo not given)
differential viability (reversal) / %: 10.6

Compound: CCOC(=O)c1cccc(NC2c3ccccc3C(=O)N2Cc2ccco2)c1 (stereo not given)
differential viability (reversal) / %: -6.29

Compound: CCCc1cc(C(=O)Nc2sc(C)c(C)c2C(=O)OCC)no1
differential viability (reversal) / %: 0.625

Compound: COc1cccc(-c2nc3n(n2)C(c2cccs2)C(C(=O)Nc2cccnc2)=C(C)N3)c1 (stereo not given)
differential viability (reversal) / %: -5.46

Compound: CCOC(=O)CN1C(=O)C(=O)c2cccc(C)c21
differential viability (reversal) / %: -0.56

Compound: COC(=O)C1=C(N)OC2=C(C(=O)CCC2)C1c1cccs1 (stereo not given)
differential viability (reversal) / %: 17.8

Compound: COc1ccc(-n2c(Cc3cccn3C)nnc2SCC(=O)Nc2ccccc2)cc1
differential viability (reversal) / %: -6.77

Compound: O=C(c1ccc2c(c1)OCCO2)N1CCCCC1
differential viability (reversal) / %: -1.2

Compound: CSc1nc2ccccc2c(=O)n1N
differential viability (reversal) / %: 4.46

Compound: CCCCOCCCNC(=O)c1ccc(NC(C)=O)cc1
differential viability (reversal) / %: 10

Compound: COc1ccc(C2c3c(oc4ccccc4c3=O)C(=O)N2c2ccc(C)cn2)cc1OC (stereo not given)
differential viability (reversal) / %: 23.3

Compound: CC(=O)NCc1nc2ccccc2n1C(C)C
differential viability (reversal) / %: 10

Compound: COc1ccc(-c2nc(CSCC(=O)NCc3ccc4c(c3)OCO4)c(C)o2)cc1OC
differential viability (reversal) / %: -7.12

Compound: CCC(Oc1ccccc1)C(=O)Nc1ccccc1OC (stereo not given)
differential viability (reversal) / %: 12.6

Compound: CC1CCN(C(=O)CSc2nnc(Cc3cc(=O)[nH]c(=O)[nH]3)n2-c2ccc(Cl)cc2)CC1
differential viability (reversal) / %: 2.73

Compound: O=C(NCCSc1c[nH]c2ccccc12)c1ccco1
differential viability (reversal) / %: -25.6

Compound: CCOC(=O)c1ccc(NC(=O)CC2SC(=NC)N(C)C2=O)cc1 (stereo not given)
differential viability (reversal) / %: 16.6

Compound: CC(C)CCn1c(NCCc2ccccc2)nc2c1c(=O)n(C)c(=O)n2C
differential viability (reversal) / %: -0.235

Compound: COc1ccc(S(=O)(=O)NCc2ccc3c(c2)OCO3)cc1C(=O)O
differential viability (reversal) / %: -3.31

Compound: Cc1cc2ccccc2n1CCNC(=O)C1CC1
differential viability (reversal) / %: -5.55

Compound: CC(=O)n1cc(-c2ccncc2)c2ccccc21
differential viability (reversal) / %: 6.14
